Target: Ras farnesyl transferase (Rattus norvegicus, UniProt Q02293+Q04631)
Construct: endogenous in cells; host or cells: Rat2 fibroblasts transformed with H-Ras or with an H-Ras/K-Ras C-terminus fusion
Test: In vivo (cellular) inhibitory activity for Ras farnesyl transferase, Rat2 cell line transformed with fused protein of H-Ras substituted with polybasic lysine domain at C-terminus of K-Ras
Assay type: cell-based
Conditions: Rat2 cell line transformed with H-Ras fused with polybasic lysine domain of K-Ras C-terminus; concentration inhibiting 50% of farnesyl bonding; read-out: K-Ras CIC50
parameter measured: IC50

O=C(c1ccc(Cc2ccccc2)cc1)c1cn(Cc2c[nH]cn2)cc1-c1cccc2ccccc12 [Compound 68]: 10 to 100 µM
COCCN(C)C(=O)c1cn(Cc2cncn2CCc2ccc(Br)cc2)cc1-c1cccc2ccccc12 [Compound 33]: 10 to 50 µM
CN1CCN(C(=O)c2cn(Cc3cncn3CCc3ccc(F)cc3)cc2-c2cccc3ccccc23)CC1 [Compound 36]: 10 to 50 µM

Return value of IC50 for input COc1ccc(Cn2cncc2Cn2cc(C(=O)N3CCN(C)CC3)c(-c3cccc4ccccc34)c2)cc1 [Compound 130] , no commentary.
10 to 50 µM

Quote IC50 reported for COC(=O)[C@H](CCSC)NC(=O)c1cn(CCCc2c[nH]cn2)cc1-c1cccc2ccccc12 [Compound 107] please.
10 to 100 µM

Return reported IC50. Input compound: N#Cc1ccc(Cn2cncc2Cn2cc(C(=O)N3CCOCC3)c(-c3cccc4ccccc34)c2)cc1 [Compound 104]
< 10 µM

Give IC50 for the following compound: Cc1cccc(C(=O)c2cn(Cc3c[nH]cn3)cc2-c2cccc3ccccc23)c1 [Compound 51]
10 to 100 µM

Quote IC50 reported for O=C(c1ccc(F)cc1F)c1cn(Cc2c[nH]cn2)cc1-c1cccc2ccccc12 [Compound 59] please.
10 to 100 µM

---

Molecular target: Ras farnesyl transferase (Rattus norvegicus, UniProt Q02293+Q04631)
Construct: endogenous in cells; host or cells: Rat2 fibroblasts transformed with H-Ras or with an H-Ras/K-Ras C-terminus fusion
Test: In vivo (cellular) inhibitory activity for Ras farnesyl transferase, Rat2 cell line transformed with fused protein of H-Ras substituted with polybasic lysine domain at C-terminus of K-Ras
Type: cell-based
Settings: Rat2 cell line transformed with H-Ras fused with polybasic lysine domain of K-Ras C-terminus; concentration inhibiting 50% of farnesyl bonding; read-out: K-Ras CIC50
pIC50: −log10 of the molar value.
As shown below, each of these compounds has a reported pIC50 value.

CN1CCN(C(=O)c2cn(Cc3cncn3Cc3ccccc3Cl)cc2-c2cccc3ccccc23)CC1: 4.30 to 5.00
O=C(c1cccc(-c2ccccc2)c1)c1cn(Cc2c[nH]cn2)cc1-c1cccc2ccccc12: 4.00 to 5.00
O=C(c1cccs1)c1cn(Cc2c[nH]cn2)cc1-c1cccc2ccccc12: 4.00 to 5.00

For the compound COCCN(C)C(=O)c1cn(Cc2cncn2C)nc1-c1cccc2ccccc12 , give its reported pIC50.
< 4.30

Name the recorded pIC50 of the compound listed here: COCCN(C)C(=O)c1cn(Cc2cncn2CCCc2ccccc2)cc1-c1cccc2ccccc12
4.52 to 5.00

Write down pIC50 measured for item COCCN(C)C(=O)c1cn(Cc2cncn2CCc2ccc(F)cc2)cc1-c1cccc2ccccc12
4.30 to 5.00

Return pIC50 (reported value) for this compound: COCCN(C)C(=O)c1cn(Cc2cncn2Cc2ccc(Br)cc2)cc1-c1cccc2ccccc12
5.40

Provide pIC50 value for the following compound: CN1CCN(C(=O)c2cn(Cc3cncn3Cc3ccc(Cl)cc3)cc2-c2cccc3ccccc23)CC1
5.30

State, in one line, measured pIC50 of COC(=O)c1sc(Cc2cncn2Cc2ccc(Cl)cc2)nc1-c1cccc2ccccc12
< 4.30

Identify pIC50 associated with the compound COC(=O)c1nc(Cc2cncn2Cc2ccc(Cl)cc2)sc1-c1cccc2ccccc12
4.60

// fetch pIC50 given entry CN1CCN(C(=O)c2cn(Cc3c[nH]cn3)cc2-c2cccc3ccccc23)CC1
4.00 to 5.00

In one line, give reported pIC50 of the entry CCOCCCn1cncc1Cn1cc(C(=O)N(C)CCOC)c(-c2cccc3ccccc23)c1 .
> 4.40

State its pIC50: COCCN(C)C(=O)c1cn(Cc2cncn2CCCOC(C)C)cc1-c1cccc2ccccc12
> 4.70

Identify pIC50 associated with the compound Cc1ccc(CCn2cncc2Cn2cc(C(=O)N3CCN(C)CC3)c(-c3cccc4ccccc34)c2)cc1
4.30 to 5.00

Provide pIC50 value for the following compound: N#Cc1ccc(Cn2cncc2Cn2cc(C(=S)N3CCOCC3)c(-c3cccc4ccccc34)c2)cc1
4.00 to 5.00

# return recorded pIC50 for entry COCCN(C)C(=O)c1cn(Cc2cncn2CCc2cccc3ccccc23)cc1-c1cccc2ccccc12
4.70 to 5.00

---

Property: pIC50; scope: individual compounds
Target: Ras farnesyl transferase (Rattus norvegicus, UniProt Q02293+Q04631)
Construct: endogenous in cells; host or cells: Rat2 fibroblasts transformed with H-Ras or with an H-Ras/K-Ras C-terminus fusion
Assay: In vivo (cellular) inhibitory activity for Ras farnesyl transferase, Rat2 cell line transformed with fused protein of H-Ras substituted with polybasic lysine domain at C-terminus of K-Ras
Type: cell-based
Conditions: Rat2 cell line transformed with H-Ras fused with polybasic lysine domain of K-Ras C-terminus; concentration inhibiting 50% of farnesyl bonding; read-out: K-Ras CIC50
pIC50: −log10 of the molar value.

Some compounds with recorded pIC50:
COCCN(C)C(=O)c1cn(Cc2cncn2CCc2ccc3ccccc3c2)cc1-c1cccc2ccccc12: 4.30 to 5.00
COc1ccc(C(=O)c2cn(Cc3c[nH]cn3)cc2-c2cccc3ccccc23)cc1: 4.00 to 5.00

// next item, pIC50 requested
Item O=C(c1cccc(Br)c1)c1cn(Cc2c[nH]cn2)cc1-c1cccc2ccccc12 : provide pIC50
4.00 to 5.00

---

Molecular target: Ras farnesyl transferase (Rattus norvegicus, UniProt Q02293+Q04631)
Construct: endogenous in cells; host or cells: Rat2 fibroblasts transformed with H-Ras or with an H-Ras/K-Ras C-terminus fusion
Test: In vivo (cellular) inhibitory activity for Ras farnesyl transferase, Rat2 cell line which expresses C-Harvey-Ras protein
Type: cell-based
Details: Rat2 cell line expressing C-Harvey-Ras; concentration inhibiting 50% of farnesyl bonding of Ras protein; read-out: H-Ras CIC50
parameter measured: IC50

CN1CCN(C(=O)c2cn(Cc3cncn3Cc3cccc(Cl)c3)cc2-c2cccc3ccccc23)CC1: 12.5 nM
N#Cc1ccc(Cn2cncc2Cn2cc(C(=S)N3CCOCC3)c(-c3cccc4ccccc34)c2)cc1: < 100 nM
O=C(c1ccc(F)cc1F)c1cn(Cc2c[nH]cn2)cc1-c1cccc2ccccc12: 1000 to 50000 nM
COC(=O)c1sc(Cc2cncn2CC2CCN(C(=O)OCc3ccccc3)CC2)nc1-c1cccc2ccccc12: > 50000 nM
CSCc1ccc(C(=O)c2cn(Cc3c[nH]cn3)cc2-c2cccc3ccccc23)cc1: 1000 to 50000 nM
COCCN(C)C(=O)c1cn(Cc2cncn2Cc2ccc(C#N)cc2)cc1-c1cccc2ccccc12: 8 nM

Would you please give the reported IC50 of CN1CCN(C(=O)c2cn(Cc3cncn3CCc3ccc(F)cc3)cc2-c2cccc3ccccc23)CC1 with Ras farnesyl transferase (Rattus norvegicus, UniProt Q02293+Q04631)?
25 nM

Write down the reported IC50 (system: Ras farnesyl transferase (Rattus norvegicus, UniProt Q02293+Q04631)) of O=C(c1ccc(Cl)cc1Cl)c1cn(Cc2c[nH]cn2)cc1-c1cccc2ccccc12
1000 to 50000 nM

---

Molecular target: Ras farnesyl transferase (Rattus norvegicus, UniProt Q02293+Q04631)
Construct: endogenous in cells; host or cells: Rat2 fibroblasts transformed with H-Ras or with an H-Ras/K-Ras C-terminus fusion
Assay: In vivo (cellular) inhibitory activity for Ras farnesyl transferase, Rat2 cell line which expresses C-Harvey-Ras protein
Format: cell-based
Conditions: Rat2 cell line expressing C-Harvey-Ras; concentration inhibiting 50% of farnesyl bonding of Ras protein; read-out: H-Ras CIC50
# key: entry, value: log10 of IC50
Answers are given as log10 of IC50 in µM.

COC(=O)c1sc(Cc2cncn2Cc2ccc(Cl)cc2)nc1-c1cccc2ccccc12 [Compound 148]: 1.48
CN1CCN(C(=O)c2cn(Cc3cncn3CCc3ccc(Cl)cc3)cc2-c2cccc3ccccc23)CC1 [Compound 40]: -1.60
CN1CCN(C(=O)c2cn(Cc3cncn3Cc3ccc(C#N)cc3)cc2-c2cccc3ccccc23)CC1 [Compound 105]: -1.30
CN1CCN(C(=O)c2cn(Cc3cncn3Cc3ccc(F)cc3)cc2-c2cccc3ccccc23)CC1 [Compound 128]: -2.00
COCCN(C)C(=O)c1cn(Cc2cncn2CCc2ccc(Cl)cc2)cc1-c1cccc2ccccc12 [Compound 39]: -1.70
O=C(c1cn(Cc2cncn2Cc2ccc(Br)cc2)nc1-c1cccc2ccccc12)N1CCOCC1 [Compound 160]: 0.18

Please supply the value of reported log10 of IC50 for the item COCCN(C)C(=O)c1cn(Cc2cncn2CC(C)C)cc1-c1cccc2ccccc12 [Compound 115]
-1.60

Complete the entry with log10 of IC50 for COCCN(C)C(=O)c1cn(Cc2cncn2CCc2cccc3ccccc23)cc1-c1cccc2ccccc12 [Compound 31]
-1.92

Identify log10 of IC50 associated with the compound Cn1cnc(Cn2cc(C(=O)c3ccc(Oc4ccccc4)cc3)c(-c3cccc4ccccc34)c2)c1 [Compound 79]
-1.00

Give the reported value of log10 of IC50 for this record: CN1CCN(C(=O)c2cn(Cc3cncn3Cc3ccc(Cl)cc3)cc2-c2cccc3ccccc23)CC1 [Compound 126]
-1.92

In one line, give reported log10 of IC50 of the entry CN1CCN(C(=O)c2cn(Cc3cncn3Cc3ccc4ccccc4c3)cc2-c2cccc3ccccc23)CC1 [Compound 30] .
-2.00
